experiment-summary: Half life in rat at 10 mg/kg, po
Format: ADME, organism-based
Set-up: dose 10 mg/kg, route oral
experimental-parameters: in vivo
reported-property: half-life (h)
Report the figure in h without appending any unit label.

Determine from records and report half-life for `CCNC(=O)Nc1ccc(Oc2ncnc(N)c2/C=N/OC)cc1Cl` 10

----------
experiment-summary: Clearance in rat at 2 mg/kg, iv
Format: ADME, organism-based
Set-up: dose 2 mg/kg, route intravenous
experimental-parameters: in vivo
reported-property: clearance (mL/min/kg)
Return type: number; implicit unit mL/min/kg.

For `CCNC(=O)Nc1ccc(Oc2ncnc(N)c2/C=N/OC)cc1Cl` , write its clearance. 7.4

----------
experimental-target: Vascular endothelial growth factor receptor 2 (Homo sapiens, UniProt P35968)
Sequence (P35968 whole entry): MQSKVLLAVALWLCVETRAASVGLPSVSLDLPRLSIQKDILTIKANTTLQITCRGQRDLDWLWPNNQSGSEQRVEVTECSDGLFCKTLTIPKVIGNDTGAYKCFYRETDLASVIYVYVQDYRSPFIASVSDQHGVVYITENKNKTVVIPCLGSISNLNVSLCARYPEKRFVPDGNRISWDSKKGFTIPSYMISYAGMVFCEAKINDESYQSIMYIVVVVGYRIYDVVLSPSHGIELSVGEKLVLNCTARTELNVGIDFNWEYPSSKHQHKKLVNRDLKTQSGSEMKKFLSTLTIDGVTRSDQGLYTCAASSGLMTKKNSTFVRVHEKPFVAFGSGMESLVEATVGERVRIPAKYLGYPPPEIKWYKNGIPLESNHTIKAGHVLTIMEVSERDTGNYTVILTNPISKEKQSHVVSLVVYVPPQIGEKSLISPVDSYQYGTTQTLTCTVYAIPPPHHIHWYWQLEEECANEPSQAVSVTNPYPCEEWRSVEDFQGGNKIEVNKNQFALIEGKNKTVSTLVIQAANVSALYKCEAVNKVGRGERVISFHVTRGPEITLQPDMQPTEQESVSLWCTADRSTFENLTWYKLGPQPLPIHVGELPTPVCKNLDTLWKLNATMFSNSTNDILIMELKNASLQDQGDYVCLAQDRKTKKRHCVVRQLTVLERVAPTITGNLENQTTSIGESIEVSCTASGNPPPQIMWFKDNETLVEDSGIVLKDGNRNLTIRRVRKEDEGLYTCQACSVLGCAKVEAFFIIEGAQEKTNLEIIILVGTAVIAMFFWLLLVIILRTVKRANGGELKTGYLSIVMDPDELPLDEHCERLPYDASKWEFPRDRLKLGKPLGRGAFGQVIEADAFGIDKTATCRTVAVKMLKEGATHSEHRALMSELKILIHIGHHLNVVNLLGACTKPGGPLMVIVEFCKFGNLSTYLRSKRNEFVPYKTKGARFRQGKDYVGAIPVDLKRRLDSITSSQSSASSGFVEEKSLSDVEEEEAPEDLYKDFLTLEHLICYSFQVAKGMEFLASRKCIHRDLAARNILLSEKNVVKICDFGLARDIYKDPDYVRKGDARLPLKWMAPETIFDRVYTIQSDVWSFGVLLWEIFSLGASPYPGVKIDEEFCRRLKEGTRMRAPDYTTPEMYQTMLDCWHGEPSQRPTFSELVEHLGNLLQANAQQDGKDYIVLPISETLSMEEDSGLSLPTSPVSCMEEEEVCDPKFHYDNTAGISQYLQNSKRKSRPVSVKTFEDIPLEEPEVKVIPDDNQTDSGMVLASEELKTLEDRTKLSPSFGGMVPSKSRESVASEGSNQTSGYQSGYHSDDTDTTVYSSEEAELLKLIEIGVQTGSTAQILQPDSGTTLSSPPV
reported-property: pIC50
Scale note: pIC50 = -log10(concentration in M).

Here are 2 compounds together with their reported answers.
molecular-string: CNC(=O)Nc1ccc(Oc2ncnc(N)c2/C=N/OC)c(F)c1
experimental-target: Vascular endothelial growth factor receptor 2 (Homo sapiens, UniProt P35968)
pIC50: 6.85
--
molecular-string: CO/N=C/c1c(N)ncnc1Oc1ccc(NC(=O)OC)cc1Cl
experimental-target: Vascular endothelial growth factor receptor 2 (Homo sapiens, UniProt P35968)
pIC50: 6.82

# next compound below
Report pIC50 from Vascular endothelial growth factor receptor 2 (Homo sapiens, UniProt P35968) testing of `CCNC(=O)Nc1ccc(Oc2ncnc(N)c2/C=N/OC)cc1` 6.85
